Tested target: T1, Active phosphorylated His6-tagged ERK2 R133K (rat (p-0033 says mouse)), P63086
T1 chain: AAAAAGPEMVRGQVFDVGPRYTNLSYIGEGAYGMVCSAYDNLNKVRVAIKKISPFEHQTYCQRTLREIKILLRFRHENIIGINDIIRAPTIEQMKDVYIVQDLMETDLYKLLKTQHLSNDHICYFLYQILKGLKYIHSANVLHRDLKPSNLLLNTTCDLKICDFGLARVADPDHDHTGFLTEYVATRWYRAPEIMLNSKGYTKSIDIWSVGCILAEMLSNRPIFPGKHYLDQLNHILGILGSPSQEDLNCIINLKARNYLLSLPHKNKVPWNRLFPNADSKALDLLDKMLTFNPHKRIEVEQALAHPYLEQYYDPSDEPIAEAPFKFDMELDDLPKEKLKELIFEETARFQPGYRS
Test protocol: competitive peptide kinase assay; D-peptide titrated as competitive inhibitor of 10 nM ERK2 on 5 μM D-site dependent reporter peptide (AQT0376), 10 μM ATP; 54 mM HEPES pH 7.4, 1.2 mM DTT, 0.01% Brij-35, 1% glycerol, 0.2 mg/ml BSA, 10 mM MgCl2; fluorescence read-out; IC50 as relative binding affinity
pIC50: −log10 of the molar value.
Items are presented alongside their recorded pIC50.

# Binder, pIC50
records = [
    ("IGRARRGLPRLAVSD (modifications not checked) [ISG20 D-peptide G2+]", 3.82),
    ("IRARRGGLPRLAVSD (modifications not checked) [ISG20 D-peptide G7+]", 3.77),
]
